Ref: paper PMC5540273

%Inh values for the compounds below.
- System: TYK2(JH2domain-pseudokinase)
- Recorded conditions: concentration: 1 μM, replicates: in singlicate; n = 1;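 further: KINOMEscan kinase panel screen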

Compound: CN(C(=O)c1ccc(-c2cc(-c3c[nH]nc3-c3ccccn3)ccn2)cc1)C1CCOCC1
%Inh: 25%
--
Compound: O=C(NOCC1CC1)c1ccc(F)c(F)c1Nc1ccc(I)cc1Cl
%Inh: 0%
--
Compound: CC(=O)Nc1ccc(COc2ccc(Nc3ccnc4cc(-c5ccccn5)ccc34)cc2)cc1.Cl
%Inh: 5%
--
Compound: Cc1nnc(-c2ccc3occ(-c4ccc(C(C)O)cc4)c3c2)o1 (stereo not shown)
%Inh: 2%
--
Compound: Cc1nnc(-c2ccc3ncc(-c4ccc(S(C)=O)cc4)n3c2)o1 (stereo not shown)
%Inh: 2%
--
Compound: O=c1cc(N2CCOCC2)nc2n(Cc3cccc(Cl)c3Cl)c(C3CC3)nn12
%Inh: 0%
--
Compound: NS(=O)(=O)c1cccc(-c2ccc3nccc(-c4cccc(S(N)(=O)=O)c4)c3c2)c1
%Inh: 39%
--
Compound: CC(C)Oc1ccc2c(-c3ccnc(Nc4ccc(N5CCN(C)CC5)cc4)n3)cnn2n1
%Inh: 99.4%
--
Compound: CC(C)(C)n1cnc2c(N)ncnc21
%Inh: 1%
--
Compound: Cc1ccc(C(=O)NCC(N)=O)cc1-n1c(C)cc(OCc2ccc(F)cc2F)c(Br)c1=O
%Inh: 0%

====

%Inh values for the compounds below.
- Test system: RSK2(Kin.Dom.1-N-terminal)
- Construct: gene RPS6KA3
- Recorded conditions: concentration: 1 μM, replicates: in singlicate; n = 1
Recorded endpoint: %Inh (%)

Compound: CC(C)Oc1ccc2c(-c3ccnc(Nc4ccc(N5CCN(C)CC5)cc4)n3)cnn2n1 [GW696155]
Study target: RSK2(Kin.Dom.1-N-terminal)
Units of measure: %
Quantitative result: 44
--
Compound: c1ccc(-c2n[nH]cc2-c2ccnc3ccccc23)nc1 [GW271431]
Study target: RSK2(Kin.Dom.1-N-terminal)
Units of measure: %
Quantitative result: 0
--
Compound: COc1ccc(Nc2ncc(C#N)c(Nc3ccccc3C(N)=O)n2)cc1N1CCN(C)CC1.Cl [GSK1558669]
Study target: RSK2(Kin.Dom.1-N-terminal)
Units of measure: %
Quantitative result: 100
--
Compound: Cc1cccc(-c2nc(-c3ccc(S(C)(=O)=O)cc3)sc2-c2ccncc2)c1
Study target: RSK2(Kin.Dom.1-N-terminal)
Units of measure: %
Quantitative result: 0
--
Compound: NS(=O)(=O)c1cccc(-c2ccc3ncc(N4CCOCC4)nc3c2)c1 [GSK1535721]
Study target: RSK2(Kin.Dom.1-N-terminal)
Units of measure: %
Quantitative result: 15
--
Compound: C[C@@H](Oc1cc(-n2cnc3ccc(NC(=O)NC(C)(C)C)cc32)sc1C(N)=O)c1ccccc1Cl [GSK346294]
Study target: RSK2(Kin.Dom.1-N-terminal)
Units of measure: %
Quantitative result: 0
--
Compound: c1ccc(-c2cc(-c3c[nH]nc3-c3ccccn3)ccn2)cc1 [GW576604]
Study target: RSK2(Kin.Dom.1-N-terminal)
Units of measure: %
Quantitative result: 0
--
Compound: O=C(NCCNc1ccnc(Nc2ccc(F)cc2)n1)Nc1ccccc1F [GSK1379880]
Study target: RSK2(Kin.Dom.1-N-terminal)
Units of measure: %
Quantitative result: 0
--
Compound: [2H]C([2H])(c1cccc(C(F)(F)F)c1C)n1ccn2c(=O)nc(N3CCOCC3)cc12 [GSK2336394]
Study target: RSK2(Kin.Dom.1-N-terminal)
Units of measure: %
Quantitative result: 0
--
Compound: O=C(c1ccc(-c2cc(-c3c[nH]nc3-c3ccccn3)ccn2)cc1)N1CCOCC1 [GW812171]
Study target: RSK2(Kin.Dom.1-N-terminal)
Units of measure: %
Quantitative result: 31

====

- Test system: MRCKA
- Recorded conditions: concentration: 1 μM, replicates: in singlicate; n = 1
Recorded endpoint: %Inh (%)

Molecule: CN1c2ccc(CNc3ccc(F)cc3)cc2-c2c(cnn2C)S1(=O)=O
Quantitative result: 0

Molecule: CCc1nc(-c2cccc(C)c2)c(-c2ccnc(NCc3ccccc3)c2)s1
Quantitative result: 0

Molecule: COc1ccc(Nc2nccc(N3CCC(NC(=O)Nc4cccc(C(C)=O)c4)C3)n2)cc1 (stereo not drawn)
Quantitative result: 0

Molecule: O=C1Cc2cc(Nc3nc(NCc4cccc(S(=O)(=O)C(F)(F)F)c4)ncc3C(F)(F)F)ccc2N1
Quantitative result: 5

Molecule: O=C(c1ccc(-c2cc(-c3c[nH]nc3-c3ccccn3)ccn2)cc1)N1CCOCC1
Quantitative result: 1

Molecule: Cc1nnc(-c2ccc3ncc(-c4ccc(S(C)=O)cc4)n3c2)o1 (stereo not drawn)
Quantitative result: 9

Molecule: O=C(NCCNc1ccnc(Nc2ccc(F)cc2)n1)Nc1ccccc1F
Quantitative result: 21

Molecule: c1ccc(-c2cc(-c3c[nH]nc3-c3ccccn3)ccn2)cc1
Quantitative result: 4

Molecule: Nc1nc(-c2ccc3c(N)n[nH]c3c2)cc(N2CCCC2)n1
Quantitative result: 6

====

- Test system: EPHA3
- Recorded conditions: concentration: 1 μM, replicates: in singlicate; n = 1

Molecule: CCn1cnc2c(N)ncnc21
%Inh: 0%
//
Molecule: O=c1cc(N2CCOCC2)nc2n(Cc3cccc(F)c3)ccn12
%Inh: 0%
//
Molecule: Cc1ccc(NC(=O)c2ccnc(N3CCN(C)CC3)c2)cc1-c1ccc(C(=O)NCC2CC2)cc1
%Inh: 0%
//
Molecule: Cc1nnc(-c2ccc3occ(-c4ccc(C(C)O)cc4)c3c2)o1 (centres unmarked)
%Inh: 0%
//
Molecule: CCc1nc(-c2cccc(C)c2)c(-c2ccnc(NCc3ccccc3)c2)s1
%Inh: 0%

====

- System: AKT2
- Recorded conditions: concentration: 1 μM, replicates: in singlicate; n = 1
Recorded endpoint: %Inh (%)

Compound: O=C(NCCNc1ccnc(Nc2ccc(F)cc2)n1)c1cc2ccccc2s1 [GSK1379874]
Quantitative result: 0

Compound: O=c1cc(N2CCOCC2)nc2n(Cc3cccc4ccccc34)ccn12 [GSK2333389]
Quantitative result: 20

Compound: O=c1cc(N2CCOCC2)nc2n(Cc3cccc(F)c3)ccn12 [GSK2297430]
Quantitative result: 9

Compound: COc1cc(Nc2nccc(N3CCC(NC(=O)c4cccc(NC(C)=O)c4)C3)n2)cc(OC)c1OC (stereo not shown) [GSK1379754]
Quantitative result: 0

Compound: NS(=O)(=O)c1cccc(-c2ccc3ncc(N4CCOCC4)nc3c2)c1 [GSK1535721]
Quantitative result: 4

Compound: CCc1ccnc(/C=C/c2n[nH]c3cc(Sc4ccccc4C(=O)NC)ccc23)c1
Quantitative result: 0

Compound: O=C(NOCC1CC1)c1ccc(F)c(F)c1Nc1ccc(I)cc1Cl
Quantitative result: 0

====

- Test system: ERK3
- Construct: gene MAPK6
- Recorded conditions: concentration: 1 μM, replicates: in singlicate; n = 1
Answer Not met if %Inh is under 1%, and Met if it is 1% or more.

Compound: Fc1ccc(-c2ncn(CCCN3CCOCC3)c2-c2cccnc2)cc1
Study target: ERK3
Class name: Not met

Compound: Cc1c2ccc(N(C)c3ccnc(Nc4cccc(S(N)(=O)=O)c4)n3)cc2nn1Cc1ccccc1.Cl.Cl
Study target: ERK3
Class name: Not met

Compound: Cc1ccc(NC(=O)c2ccnc(N3CCN(C)CC3)c2)cc1-c1ccc(C(=O)NCC2CC2)cc1
Study target: ERK3
Class name: Not met

Compound: COc1ccc(S(=O)(=O)NC2CCN(c3cc(C)nc(Nc4cccc(C#N)c4)n3)CC2)cc1.O=C(O)C(F)(F)F
Study target: ERK3
Class name: Met

Compound: COc1ccc(COc2cc(-n3cnc4ccccc43)sc2C(N)=O)cc1
Study target: ERK3
Class name: Met

Compound: CC(C)Oc1ccc2c(-c3ccnc(Nc4ccc(N5CCN(C)CC5)cc4)n3)cnn2n1
Study target: ERK3
Class name: Met

Compound: CCc1ccnc(/C=C/c2n[nH]c3cc(Sc4ccccc4C(=O)NC)ccc23)c1
Study target: ERK3
Class name: Not met

Compound: CC(=O)Nc1ccc(COc2ccc(Nc3ccnc4cc(-c5ccccn5)ccc34)cc2)cc1.Cl
Study target: ERK3
Class name: Met

Compound: Cc1nnc(-c2ccc3ncc(-c4ccc(S(C)=O)cc4)n3c2)o1 (stereo not drawn)
Study target: ERK3
Class name: Not met

Compound: CNc1ncnc2[nH]ncc12
Study target: ERK3
Class name: Not met

Compound: O=C(c1ccc(-c2cc(-c3c[nH]nc3-c3ccccn3)ccn2)cc1)N1CCOCC1
Study target: ERK3
Class name: Not met

Compound: Nc1nccc(-c2c(-c3ccc(F)cc3)ncn2C2CCN(CC(F)(F)F)CC2)n1
Study target: ERK3
Class name: Not met

Compound: COc1cc(Nc2nccc(N3CCC(NC(=O)c4cccc(NC(C)=O)c4)C3)n2)cc(OC)c1OC (stereo not drawn)
Study target: ERK3
Class name: Not met

Compound: CCc1nc(-c2cccc(C)c2)c(-c2ccnc(NCc3ccccc3)c2)s1
Study target: ERK3
Class name: Not met

Compound: O=C1Cc2cc(Nc3nc(NCc4cccc(S(=O)(=O)C(F)(F)F)c4)ncc3C(F)(F)F)ccc2N1
Study target: ERK3
Class name: Met

Compound: O=c1cc(N2CCOCC2)nc2n(Cc3cccc(C(F)(F)F)c3)ccn12
Study target: ERK3
Class name: Not met

Compound: c1ccc(-c2cc(-c3c[nH]nc3-c3ccccn3)ccn2)cc1
Study target: ERK3
Class name: Not met

Compound: O=c1cc(N2CCOCC2)nc2n(Cc3cccc(F)c3)ccn12
Study target: ERK3
Class name: Met

Compound: Fc1ccc(-c2ncn(CCCN3CCOCC3)c2-c2ccccn2)cc1
Study target: ERK3
Class name: Not met

Compound: CN1c2ccc(CNc3ccc(F)cc3)cc2-c2c(cnn2C)S1(=O)=O
Study target: ERK3
Class name: Not met

Compound: Cc1ccc(C(=O)NCC(N)=O)cc1-n1c(C)cc(OCc2ccc(F)cc2F)c(Br)c1=O
Study target: ERK3
Class name: Not met

Compound: COc1ccc(Nc2ncc(C#N)c(Nc3ccccc3C(N)=O)n2)cc1N1CCN(C)CC1.Cl
Study target: ERK3
Class name: Met

Compound: Cc1nnc(-c2ccc(C)c(-c3ccc(C(=O)Nc4ccc(NS(C)(=O)=O)cc4)cc3)c2)o1
Study target: ERK3
Class name: Not met

Compound: O=C1NC(=O)C(N2CCc3ccccc32)=C1c1cccc(Cl)c1
Study target: ERK3
Class name: Not met

Compound: O=C(NCCNc1ccnc(Nc2ccc(F)cc2)n1)c1cc2ccccc2s1
Study target: ERK3
Class name: Not met

Compound: O=c1cc(N2CCOCC2)nc2n(Cc3cccc(Cl)c3Cl)c(C3CC3)nn12
Study target: ERK3
Class name: Not met

Compound: CC(C)(C)n1cnc2c(N)ncnc21
Study target: ERK3
Class name: Met

Compound: COCCNC(=O)c1ccc(-c2cc(C(=O)NC3CC3)cc(F)c2C)cc1
Study target: ERK3
Class name: Met

Compound: CN1c2ccc(NCc3ccc(F)cc3)cc2-c2c(cnn2C)S1(=O)=O
Study target: ERK3
Class name: Not met

Compound: CN(C(=O)c1ccc(-c2cc(-c3c[nH]nc3-c3ccccn3)ccn2)cc1)C1CCOCC1
Study target: ERK3
Class name: Met

Compound: O=C(Nc1n[nH]c2cc(-c3cccc(F)c3)ccc12)C1CC1
Study target: ERK3
Class name: Not met

Compound: COc1ccc(CNC(=O)NC2CCN(c3ccnc(Nc4ccc(OC)cc4)n3)C2)cc1 (stereo not drawn)
Study target: ERK3
Class name: Not met

Compound: O=C(Nc1cccc(-c2nn3ncccc3c2-c2ccnc(Nc3cccc(C(F)(F)F)c3)n2)c1)c1c(F)cccc1F
Study target: ERK3
Class name: Met

Compound: Cn1cc(-c2ccc3c(c2)CCN3C(=O)Cc2ccccc2Cl)c2c(N)ncnc21
Study target: ERK3
Class name: Not met

Compound: COc1ccc(Nc2nccc(N3CCC(NC(=O)Nc4cccc(C(C)=O)c4)C3)n2)cc1 (stereo not drawn)
Study target: ERK3
Class name: Met
